The origin of these recorded values is patent US10689354B2.

- ASSAYED SYSTEM: androgen receptor (AR-LBD) (Rattus norvegicus, UniProt P15207)
- Construct: 5 μL of 2×AR-LBD/Fluoromone AL Red Complex contained in the kit; purchased Invitrogen
- PROCEDURE TEXT: Evaluation of androgen receptor affinity (PolarScreen Androgen Receptor Competitor Assay Kit, Red; fluorescence polarization)
- STUDY CONDITIONS: 22° C. for 5 hours, relative to binding rate of 1 μM DHT, read-out: AR affinity (pEC50) (converted)

{"SMILES TEXT": "Cc1sc(N(CCc2ccccn2)c2ccc(C#N)cc2)nc1C(=O)NS(C)(=O)=O", "EC50": "> 2000 nM"}
{"SMILES TEXT": "Cc1sc(N(CCC(C)(C)C)Cc2ccccc2)nc1C(=O)NS(C)(=O)=O", "EC50": "> 2000 nM"}
{"SMILES TEXT": "Cc1sc(N(CC(=O)c2ccccc2)c2ccc(C#N)cc2)nc1C(=O)NS(C)(=O)=O", "EC50": "> 2000 nM"}

###

- ASSAYED SYSTEM: androgen receptor (AR-LBD) (Rattus norvegicus, UniProt P15207)
- Construct: 5 μL of 2×AR-LBD/Fluoromone AL Red Complex contained in the kit; purchased Invitrogen
- Sequence (P15207 651-882 limits assumed): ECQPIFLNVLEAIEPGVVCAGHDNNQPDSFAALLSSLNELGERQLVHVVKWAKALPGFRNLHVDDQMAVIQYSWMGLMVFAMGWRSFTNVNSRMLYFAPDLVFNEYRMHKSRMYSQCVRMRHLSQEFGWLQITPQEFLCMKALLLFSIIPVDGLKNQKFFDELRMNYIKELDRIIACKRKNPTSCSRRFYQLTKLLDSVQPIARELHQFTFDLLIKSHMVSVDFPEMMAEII
- PROCEDURE TEXT: Evaluation of androgen receptor affinity (PolarScreen Androgen Receptor Competitor Assay Kit, Red; fluorescence polarization)
- STUDY CONDITIONS: 22° C. for 5 hours, relative to binding rate of 1 μM DHT, read-out: AR affinity (pEC50) (converted)
Here, each record is paired with measured EC50 data.
METRIC: EC50

{"SMILES TEXT": "Cc1sc(N(Cc2ccccc2)c2ccc(OCC(=O)N(C)C)cc2)nc1C(=O)NS(C)(=O)=O", "ASSAYED SYSTEM": "androgen receptor (AR-LBD) (Rattus norvegicus, UniProt P15207)", "MEAS VALUE": "> 2000 nM"}
{"SMILES TEXT": "Cc1sc(N(Cc2ccccc2)c2cnccn2)nc1C(=O)NS(C)(=O)=O", "ASSAYED SYSTEM": "androgen receptor (AR-LBD) (Rattus norvegicus, UniProt P15207)", "MEAS VALUE": "> 2000 nM"}
{"SMILES TEXT": "Cc1sc(N(Cc2ccccc2)c2ccc(OCc3ccccc3)cc2)nc1C(=O)NS(C)(=O)=O", "ASSAYED SYSTEM": "androgen receptor (AR-LBD) (Rattus norvegicus, UniProt P15207)", "MEAS VALUE": "> 2000 nM"}

###

- ASSAYED SYSTEM: androgen receptor (AR-LBD) (Rattus norvegicus)
- Construct: 5 μL of 2×AR-LBD/Fluoromone AL Red Complex contained in the kit; purchased Invitrogen
- Sequence (P15207 651-882 limits assumed): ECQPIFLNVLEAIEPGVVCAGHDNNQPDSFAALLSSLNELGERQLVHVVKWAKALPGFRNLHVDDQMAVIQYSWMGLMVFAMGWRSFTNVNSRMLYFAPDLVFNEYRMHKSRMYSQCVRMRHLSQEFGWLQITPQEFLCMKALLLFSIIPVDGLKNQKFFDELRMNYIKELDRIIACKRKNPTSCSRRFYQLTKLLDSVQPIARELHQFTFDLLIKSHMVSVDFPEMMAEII
- PROCEDURE TEXT: Evaluation of androgen receptor affinity (PolarScreen Androgen Receptor Competitor Assay Kit, Red; fluorescence polarization)
- STUDY CONDITIONS: 22° C. for 5 hours, relative to binding rate of 1 μM DHT, read-out: AR affinity (pEC50) (converted)
Here, each record is paired with measured EC50 data.

{"MOLECULE": "COCC(CN(c1ccc(C#N)cc1)c1nc(C(=O)NS(C)(=O)=O)c(C)s1)c1ccccc1 (centres unmarked)", "QUALIFIER SIGN": ">", "EC50 [nM]": 2000}
{"MOLECULE": "Cc1sc(N(c2ccc(C#N)cc2F)[C@@H](CO)Cc2ccccc2)nc1C(=O)NS(C)(=O)=O", "QUALIFIER SIGN": ">", "EC50 [nM]": 2000}
{"MOLECULE": "Cc1sc(N(Cc2ccccc2)Cc2csc3cc(C#N)ccc23)nc1C(=O)NS(C)(=O)=O", "QUALIFIER SIGN": ">", "EC50 [nM]": 2000}
{"MOLECULE": "Cc1sc(N(Cc2ccc(Cl)cc2F)c2ccc(C#N)cc2)nc1C(=O)NS(C)(=O)=O", "QUALIFIER SIGN": "=", "EC50 [nM]": 31.6}
{"MOLECULE": "Cc1sc(N(Cc2ccccc2OC(F)F)c2ccc(C#N)cc2)nc1C(=O)NS(C)(=O)=O", "QUALIFIER SIGN": "=", "EC50 [nM]": 100}
{"MOLECULE": "Cc1sc(N(CC(C)(C)C)c2ccc(C#N)cc2)nc1C(=O)NS(C)(=O)=O", "QUALIFIER SIGN": ">", "EC50 [nM]": 2000}
{"MOLECULE": "Cc1sc(N(CCc2ccsc2)Cc2ccccc2)nc1C(=O)NS(C)(=O)=O", "QUALIFIER SIGN": "=", "EC50 [nM]": 158}
{"MOLECULE": "Cc1sc(N(Cc2cccc3cnccc23)c2ccc(C#N)cc2)nc1C(=O)NS(C)(=O)=O", "QUALIFIER SIGN": "=", "EC50 [nM]": 1000}
{"MOLECULE": "CS(=O)(=O)NC(=O)c1nc(N(Cc2ccccc2)c2ccc(C#N)cc2)sc1-c1ccccc1", "QUALIFIER SIGN": ">", "EC50 [nM]": 2000}
{"MOLECULE": "Cc1oc(N(CCc2ccc(Cl)cc2)CC[C@@H]2CCCC[C@H]2O)nc1C(=O)NS(C)(=O)=O (racemic)", "QUALIFIER SIGN": "=", "EC50 [nM]": 316}
{"MOLECULE": "Cc1sc(N(Cc2ccc(Cl)cc2C#N)c2ccc(C#N)cc2)nc1C(=O)NS(C)(=O)=O", "QUALIFIER SIGN": "=", "EC50 [nM]": 501}
{"MOLECULE": "CCc1oc(N(Cc2cc(F)cc(OC(F)F)c2)c2ccc(C#N)cc2)nc1C(=O)NS(C)(=O)=O", "QUALIFIER SIGN": "=", "EC50 [nM]": 20}
{"MOLECULE": "Cc1sc(N(Cc2ncc(F)cc2Cl)c2ccc(C#N)cc2)nc1C(=O)NS(C)(=O)=O", "QUALIFIER SIGN": "=", "EC50 [nM]": 501}
{"MOLECULE": "Cc1sc(N(Cc2ccc(SC(F)(F)F)cc2)c2ccc(C#N)cc2)nc1C(=O)NS(C)(=O)=O", "QUALIFIER SIGN": "=", "EC50 [nM]": 25.1}
{"MOLECULE": "Cc1sc(N(Cc2ccccc2)c2ccc(C#N)cc2)nc1C(=O)NS(=O)(=O)CC(F)(F)F", "QUALIFIER SIGN": "=", "EC50 [nM]": 31.6}
{"MOLECULE": "Cc1oc(N(CC[C@@H]2CCCC[C@H]2O)c2ccc(C#N)cc2)nc1C(=O)NS(C)(=O)=O (racemic)", "QUALIFIER SIGN": "=", "EC50 [nM]": 794}
{"MOLECULE": "Cc1ccc(S(=O)(=O)n2cc(CCN(Cc3ccccc3)c3nc(C(=O)NS(C)(=O)=O)c(C)s3)c3ccccc32)cc1", "QUALIFIER SIGN": ">", "EC50 [nM]": 2000}

###

- ASSAYED SYSTEM: human androgen receptor (Homo sapiens, UniProt P10275)
- Construct: expressed in transfected cells; host or cells: HEK293
- Sequence (P10275 whole entry): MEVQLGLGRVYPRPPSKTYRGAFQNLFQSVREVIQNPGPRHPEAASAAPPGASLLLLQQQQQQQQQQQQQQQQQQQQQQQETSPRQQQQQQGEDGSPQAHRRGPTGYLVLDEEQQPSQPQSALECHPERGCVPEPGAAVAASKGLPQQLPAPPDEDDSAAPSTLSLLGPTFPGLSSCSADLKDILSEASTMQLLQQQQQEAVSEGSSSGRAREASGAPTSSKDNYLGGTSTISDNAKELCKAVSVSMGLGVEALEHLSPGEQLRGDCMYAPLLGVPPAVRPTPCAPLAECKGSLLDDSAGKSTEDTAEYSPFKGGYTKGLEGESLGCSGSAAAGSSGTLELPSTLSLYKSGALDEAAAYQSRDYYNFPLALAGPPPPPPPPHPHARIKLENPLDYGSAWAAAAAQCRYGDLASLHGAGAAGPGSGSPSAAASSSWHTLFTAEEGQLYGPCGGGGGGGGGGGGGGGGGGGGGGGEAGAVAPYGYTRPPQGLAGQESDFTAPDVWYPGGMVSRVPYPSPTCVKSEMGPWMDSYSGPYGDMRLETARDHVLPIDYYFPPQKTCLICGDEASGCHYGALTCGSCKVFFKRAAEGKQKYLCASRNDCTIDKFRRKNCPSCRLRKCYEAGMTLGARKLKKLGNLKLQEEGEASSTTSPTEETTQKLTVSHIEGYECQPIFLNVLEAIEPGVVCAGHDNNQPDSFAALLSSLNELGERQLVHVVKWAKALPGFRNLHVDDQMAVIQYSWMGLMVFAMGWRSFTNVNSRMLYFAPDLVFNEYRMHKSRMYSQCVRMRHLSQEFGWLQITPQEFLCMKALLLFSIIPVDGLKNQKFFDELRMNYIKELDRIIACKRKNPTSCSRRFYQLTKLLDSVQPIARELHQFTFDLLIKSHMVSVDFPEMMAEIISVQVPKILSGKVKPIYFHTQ
- PROCEDURE TEXT: Reporter assay of an androgen receptor responsive sequence (luciferase, transiently transfected HEK293 cells)
- Format: cell-based
- STUDY CONDITIONS: 24 hours incubation, relative to activity of 100 nM DHT, read-out: AR transcriptive activity (pEC50) (converted)
I'd appreciate it if you marked entries yes (1) when EC50 is lower than 200 nM and no (0) when it is not.

{"SMILES TEXT": "CS(=O)(=O)NC(=O)c1nc(N(Cc2cccc(OC(F)F)c2)c2ccc(C#N)cc2)sc1Cl", "CATEGORY": "yes (1)"}
{"SMILES TEXT": "Cc1sc(N(Cc2ccccc2)c2ccc3ccccc3c2)nc1C(=O)NS(C)(=O)=O", "CATEGORY": "no (0)"}
{"SMILES TEXT": "Cc1cccc(CN(c2ccc(C#N)cc2)c2nc(C(=O)NS(C)(=O)=O)c(C)s2)c1", "CATEGORY": "yes (1)"}
{"SMILES TEXT": "CNC(=O)c1ccc(CCN(Cc2ccccc2)c2nc(C(=O)NS(C)(=O)=O)c(C)s2)cc1", "CATEGORY": "no (0)"}
{"SMILES TEXT": "Cc1sc(N(Cc2cnc(C(F)(F)F)cn2)c2ccc(C#N)cc2)nc1C(=O)NS(C)(=O)=O", "CATEGORY": "no (0)"}
{"SMILES TEXT": "Cc1sc(N(CCn2cc(C#N)cn2)Cc2ccc(Cl)cc2)nc1C(=O)NS(C)(=O)=O", "CATEGORY": "no (0)"}
{"SMILES TEXT": "Cc1sc(N(CCc2ccc(C#N)cc2)Cc2ccc(Cl)cc2)nc1C(=O)NS(=O)(=O)Cc1cccnc1", "CATEGORY": "yes (1)"}
{"SMILES TEXT": "CS(=O)(=O)NC(=O)c1nc(N(Cc2cc3ccccc3s2)c2ccc(C#N)cc2)sc1Br", "CATEGORY": "yes (1)"}
{"SMILES TEXT": "Cc1sc(N(CCc2ccc(Cl)cc2)Cc2ccc(OC(F)(F)F)cc2)nc1C(=O)NS(=O)(=O)C1CC1", "CATEGORY": "no (0)"}
{"SMILES TEXT": "COCCCS(=O)(=O)NC(=O)c1nc(N(CCc2ccc(OC(F)(F)F)cc2)Cc2ccc(Cl)cn2)oc1C", "CATEGORY": "no (0)"}
{"SMILES TEXT": "CS(=O)(=O)NC(=O)c1nc(N(Cc2ccc(Cl)cc2)c2ccc(C#N)cc2)sc1Cl", "CATEGORY": "yes (1)"}
{"SMILES TEXT": "COCCCS(=O)(=O)NC(=O)c1nc(N(Cc2ccc(C(F)(F)F)nc2)c2ccc(C#N)cc2)sc1C1CC1", "CATEGORY": "no (0)"}
